Cited source: the RNAGym collection of RNA variant scans (doi:10.1073/pnas.2313332121)

B1: TPR 5TU (parent)
chain: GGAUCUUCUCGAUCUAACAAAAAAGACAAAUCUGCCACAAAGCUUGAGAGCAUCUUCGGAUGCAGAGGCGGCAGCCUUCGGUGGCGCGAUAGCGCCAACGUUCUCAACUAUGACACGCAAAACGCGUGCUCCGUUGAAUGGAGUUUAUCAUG

Variants of: B1
assay procedure: polymerase ribozyme fitness, log enrichment relative to wild type (log ratio); higher = more active; in vitro selection for triplet polymerase activity
Variants at the floor of the assay were thinned out.
property label: polymerase ribozyme fitness (log ratio)

mutant_id="C54U A138G" assay_result=-3.19
mutant_id="U6C A17U A64U A73U C85G U127A U130G A142G" assay_result="≤ -4.2"
mutant_id="C76U A115C" assay_result=-0.614
mutant_id="U9A U15A C93U C103G" assay_result="≤ -4.2"
mutant_id="A120C G136U G140C" assay_result=-4.19
mutant_id="U45A A115C" assay_result="≤ -4.2"
mutant_id="A37G U45A C76G U82G C93G A113C G136U" assay_result="≤ -4.2"
mutant_id="C76A C87U G92C A142G" assay_result="≤ -4.2"
mutant_id="C57A A89U A98G" assay_result=0.118
mutant_id=A29C assay_result=-3.73
mutant_id="A12G U45G A49U A60G U61G A107U U127G" assay_result="≤ -4.2"
mutant_id="A19C C93G" assay_result=-2.84
mutant_id="G50A U53C U56A A91U G94C A142C" assay_result="≤ -4.2"
mutant_id="U82G C95G G126C" assay_result=-1.07
mutant_id="C76G A98G A113U U151G" assay_result="≤ -4.2"
mutant_id="U53A A137U" assay_result="≤ -4.2"
mutant_id="A26U C36G U55A G58C C105U" assay_result="≤ -4.2"
mutant_id="A22C A39C" assay_result=-2.49
mutant_id="A16U A19U" assay_result=-2.39
mutant_id="C10G A28U C54U C85G C116U" assay_result="≤ -4.2"
mutant_id="A47U A121U A147C C149U" assay_result=-3.04
mutant_id="U144C A150C" assay_result=-4.19
mutant_id="A12U C85U A97G C116U" assay_result=-1.53
mutant_id="A52U U53A C57A G86A" assay_result=-1.31
mutant_id="A12U G94A" assay_result=-1.47
mutant_id="U7G A12G C18G C32U G94C A115U" assay_result="≤ -4.2"
mutant_id="C54U C125G" assay_result=-1.05
mutant_id="U44A C85U U139C" assay_result="≤ -4.2"
mutant_id="C125U U134G A142C" assay_result=-3.76
mutant_id="U6G C10G C87G" assay_result="≤ -4.2"
mutant_id="A60G A73G G92U" assay_result=0.661
mutant_id="A91G U104G A115C" assay_result=-4.06
mutant_id="A115G C116A U127G" assay_result="≤ -4.2"
mutant_id="A24U A47C G71C A97U A98G C129G" assay_result="≤ -4.2"
mutant_id="U45G G88A" assay_result=-4.02
mutant_id="G48C C54A C108G C114U C125U U134A C149G" assay_result="≤ -4.2"
mutant_id="A24U G86U" assay_result=-2.59
mutant_id="G58C C69A" assay_result=-2.62
mutant_id="U6G G59A G92A C95A C105U" assay_result=-4.19
mutant_id="G59C A89C C93U G117C A120G U135A" assay_result=-3.35
mutant_id="C54G G65A C79U C85G A91U G136C" assay_result="≤ -4.2"
mutant_id="A12G A21C C32G G50U C125G" assay_result="≤ -4.2"
mutant_id="C14A C85A" assay_result=-2.69
mutant_id="C76U G84A C85A C129U U134C" assay_result="≤ -4.2"
mutant_id="U56A G71U U78G C85U G143U" assay_result="≤ -4.2"
mutant_id="U4C G11A G68A C72A G83U C93G G140A U148C" assay_result="≤ -4.2"
mutant_id="C10U U33G C38G U44G A52G C87U C108U C118U" assay_result="≤ -4.2"
mutant_id="A12U U15C A49C G88C C123U G143C" assay_result="≤ -4.2"
mutant_id="U61G G68A U77C C87U C93G C123U G126C U135C" assay_result="≤ -4.2"
mutant_id="U31G A122U A142C" assay_result=-1.56
mutant_id="C14A A26U A29G C57G C93A G141C" assay_result="≤ -4.2"
mutant_id="A47C G48C G74C U78G G143U" assay_result="≤ -4.2"
mutant_id="A16U A29U U77G C85G C116U C125A U134C" assay_result="≤ -4.2"
mutant_id="A20U C27U G42U A52C U55A C95G C96U" assay_result="≤ -4.2"
mutant_id="U31G U56G C93G C96G G133C" assay_result="≤ -4.2"
mutant_id="A19C A66C G94A U134G" assay_result="≤ -4.2"
mutant_id="U55A C57A" assay_result=0.142
mutant_id="A16C A26U" assay_result=-2.62
mutant_id=U15A assay_result=-0.182
mutant_id="C93U U148A" assay_result=-3.85
mutant_id="C85G C149U" assay_result=-2.46
mutant_id="A20U G83A C96G C118U U134A U144A" assay_result=-3.46
mutant_id="A20G C27A A47G G92A" assay_result="≤ -4.2"
mutant_id="U9A A41G A91U C95A C96G U102G G133A U135C" assay_result="≤ -4.2"
mutant_id="C54U A91C" assay_result="≤ -4.2"
mutant_id="G58U C132G" assay_result=-2.82
mutant_id="C85A U127A" assay_result=-3.68
mutant_id="G70U C85U G88C U145C" assay_result="≤ -4.2"
mutant_id="G88A G124C" assay_result="≤ -4.2"
mutant_id="A12U U31C C32U A40U C57G A73G C75A G88A G152A" assay_result="≤ -4.2"
mutant_id="C51G A91U" assay_result="≤ -4.2"
mutant_id="A12G A24U G34A G92U G126C" assay_result=-1.83
mutant_id="G50C A64C U82G C87G A106U A122C" assay_result="≤ -4.2"
mutant_id="A47G C87U C99U" assay_result=-1.24
mutant_id="A37C C93A" assay_result=-2.8
mutant_id="A40C A122G" assay_result=0.759
mutant_id="C95U C114U" assay_result=-1.72
mutant_id=A66U assay_result=-3.46
mutant_id="C5G U53A" assay_result=-1.8
mutant_id="G124A C125G" assay_result=0.356
mutant_id="A3U C35G C93U G100A C105G G133C" assay_result="≤ -4.2"
mutant_id="A66G C93U C108U C132G C149A" assay_result="≤ -4.2"
mutant_id="A47C C93A A106U U109G" assay_result="≤ -4.2"
mutant_id="A22C U45A" assay_result=-2.58
mutant_id="A24G U53A C95U" assay_result="≤ -4.2"
mutant_id="C76U A91U" assay_result=-4.13
mutant_id="U45G G80C A106G A119U A121U G124C G133U" assay_result="≤ -4.2"
mutant_id="A22C C27U G50C G80U U144G" assay_result="≤ -4.2"
mutant_id="C8A A41G" assay_result=-4.12
mutant_id="C51U C95G C105U U145A" assay_result=-1.72
mutant_id="C99G G126A" assay_result=-0.619
